Sourced from the Immune Epitope Database (IEDB)

# TARGET_UNDER_TEST: HLA-A*68:01
# METHOD: IEDB peptide-MHC binding, purified MHC/competitive/radioactivity; filed as Kd, often an IC50 or EC50 that approximates it; bounds were set here for any values at or beyond the usual limits of such assays
# MEASUREMENT_CONDITIONS: source organism: SARS coronavirus Tor2
MEASUREMENT_KIND: pKd
Value format note: pKd is -log10 of concentration (mol/L); just state the number.

Form: item `TVSALVYDNK` ; test system HLA-A*68:01; pKd: 8.23

The measured pKd that `NVAYNVVNK` showed for HLA-A*68:01 is 7.51

Given the sequence `TTEMLSRALK` and test system HLA-A*68:01, the measured pKd is 7.89

Reading of pKd for `TMADLVYALR` with HLA-A*68:01: 8.03

Entry `VQMLSDTLK` under HLA-A*68:01 had pKd of 5.61

The reported pKd value, HLA-A*68:01, for `AANTVIWDY` reads 4.85

Result for `AVLQSGFRK` , tested on HLA-A*68:01, pKd: 6.41

Lab entry: HLA-A*68:01 assay, sequence `MLPPCYNFLK` , pKd = 8.58

pKd on HLA-A*68:01 for `LMPILTLTR` is 5.76

With HLA-A*68:01 as the test system, `SSYSLFDMSK` showed pKd of 7.37

Entry `IVPFWITAIY` : pKd on HLA-A*68:01 = 6.75

###

# TARGET_UNDER_TEST: HLA-A*24:03
# METHOD: IEDB peptide-MHC binding, purified MHC/direct/fluorescence; filed as Kd, often an IC50 or EC50 that approximates it; bounds were set here for any values at or beyond the usual limits of such assays
# MEASUREMENT_CONDITIONS: source organism: Vibrio parahaemolyticus AQ3810
MEASUREMENT_KIND: Kd

The reported HLA-A*24:03 Kd of `HQFTSNPEV` is ≥ 20 µM

###

# TARGET_UNDER_TEST: HLA-A*03:01
# METHOD: IEDB peptide-MHC binding, purified MHC/competitive/fluorescence; filed as Kd, often an IC50 or EC50 that approximates it; bounds were set here for any values at or beyond the usual limits of such assays
# MEASUREMENT_CONDITIONS: source organism: Canarypox virus
MEASUREMENT_KIND: Kd

# Kd (sequence: `YMMDGNECP` ) is ≥ 20 µM

###

# TARGET_UNDER_TEST: HLA-C*12:03
# METHOD: IEDB peptide-MHC binding, purified MHC/direct/fluorescence; filed as Kd, often an IC50 or EC50 that approximates it; bounds were set here for any values at or beyond the usual limits of such assays
# MEASUREMENT_CONDITIONS: source organism: Angomonas deanei
MEASUREMENT_KIND: Kd (nM)
Respond with the bare value in nM.

Reported HLA-C*12:03 Kd for item `HAATNFREI` was 25

###

Please provide measured pKd for the entries that follow.
# TARGET_UNDER_TEST: HLA-A*69:01
# METHOD: IEDB peptide-MHC binding, purified MHC/competitive/fluorescence; filed as Kd, often an IC50 or EC50 that approximates it; bounds were set here for any values at or beyond the usual limits of such assays
# MEASUREMENT_CONDITIONS: source organism: Zaire ebolavirus
pKd: −log10 of the molar value.

Entry under test: `KEGKLQCRI` . Its pKd was ≤ 4.70

Sample `RDRFKRTSF` ; pKd observed: ≤ 4.70

###

# TARGET_UNDER_TEST: HLA-B*15:17
# METHOD: IEDB peptide-MHC binding, purified MHC/competitive/fluorescence; filed as Kd, often an IC50 or EC50 that approximates it; bounds were set here for any values at or beyond the usual limits of such assays
# MEASUREMENT_CONDITIONS: source organism: Reston ebolavirus
MEASUREMENT_KIND: Kd

Lookup result for `RRELSKEKL` ; measured Kd: ≥ 20 µM

###

# TARGET_UNDER_TEST: HLA-B*15:09
# METHOD: IEDB peptide-MHC binding, purified MHC/direct/fluorescence; filed as Kd, often an IC50 or EC50 that approximates it; bounds were set here for any values at or beyond the usual limits of such assays
# MEASUREMENT_CONDITIONS: source organism: Giardia lamblia ATCC 50803
pKd: −log10 of the molar value.
MEASUREMENT_KIND: pKd

Assay HLA-B*15:09, sample `RPALVVDTP` , pKd read: ≤ 4.70

###

# TARGET_UNDER_TEST: HLA-A*02:06
# METHOD: IEDB peptide-MHC binding, purified MHC/competitive/radioactivity; filed as Kd, often an IC50 or EC50 that approximates it; bounds were set here for any values at or beyond the usual limits of such assays
# MEASUREMENT_CONDITIONS: source organism: Dengue virus 2 Jamaica/1409/1983
MEASUREMENT_KIND: pKd
Scale for pKd: -log10 of concentration given in mol/L; no unit attached.

For reference, reported pKd for `ITASILLWYA` stands at 8.70

get_value(item= `AIYGAAFSGV` , readout=pKd) returns 8.34

Measured pKd of `SQVNPITLTA` : 6.89

Looking up `KQLGQVMLLI` , I found its pKd recorded as 7.96

###

# TARGET_UNDER_TEST: HLA-A*01:01
# METHOD: IEDB peptide-MHC binding, purified MHC/direct/fluorescence; filed as Kd, often an IC50 or EC50 that approximates it; bounds were set here for any values at or beyond the usual limits of such assays
# MEASUREMENT_CONDITIONS: source organism: Escherichia coli O157:H7
Assign Kd to each entry below.

// Kd (HLA-A*01:01) for `PILPKLFIL` = ≥ 20 µM

Observed Kd on HLA-A*01:01, entry `GEIFGLLGP` , equals ≥ 20 µM

###

# TARGET_UNDER_TEST: HLA-A*11:01
# METHOD: IEDB peptide-MHC binding, purified MHC/direct/fluorescence; filed as Kd, often an IC50 or EC50 that approximates it; bounds were set here for any values at or beyond the usual limits of such assays
# MEASUREMENT_CONDITIONS: source organism: Influenza A virus (A/chicken/Hubei/wm/1997(H5N1))
MEASUREMENT_KIND: Kd

Data point: `EKPKFLPDL` ; Kd = ≥ 20 µM

###

# TARGET_UNDER_TEST: HLA-B*35:01
# METHOD: IEDB peptide-MHC binding, purified MHC/competitive/fluorescence; bounds were set here for any values at or beyond the usual limits of such assays
# MEASUREMENT_CONDITIONS: source organism: Homo sapiens
MEASUREMENT_KIND: IC50 (nM)
Give the number; nM is assumed, so skip it.

# IC50 of `LPSCPTNFCIF` = 47.7

###

# TARGET_UNDER_TEST: HLA-A*26:02
# METHOD: IEDB peptide-MHC binding, purified MHC/competitive/fluorescence; filed as Kd, often an IC50 or EC50 that approximates it; bounds were set here for any values at or beyond the usual limits of such assays
# MEASUREMENT_CONDITIONS: source organism: Human immunodeficiency virus 1
MEASUREMENT_KIND: Kd (nM)
Give the value in nM but do not write nM after it.

Given item `EVKSLFNTV` , the value recorded as its Kd is 199

Given item `RSLFNTIAVLY` , the value recorded as its Kd is 1350

###

# TARGET_UNDER_TEST: HLA-A*03:01
# METHOD: IEDB peptide-MHC binding, purified MHC/direct/fluorescence; filed as Kd, often an IC50 or EC50 that approximates it; bounds were set here for any values at or beyond the usual limits of such assays
# MEASUREMENT_CONDITIONS: source organism: Pseudomonas savastanoi
MEASUREMENT_KIND: Kd

Record summary for `TYYPQVVLG` : reported Kd = ≥ 20 µM

###

# TARGET_UNDER_TEST: HLA-A*03:01
# METHOD: IEDB peptide-MHC binding, purified MHC/competitive/radioactivity; filed as Kd, often an IC50 or EC50 that approximates it; bounds were set here for any values at or beyond the usual limits of such assays
# MEASUREMENT_CONDITIONS: source organism: Dengue virus 1 Brazil/97-11/1997
Provide the recorded pKd for the entries that follow.
Give only the number. pKd is defined as minus log10 of concentration in molar units.

Given item `SILLSSLLK` , the value recorded as its pKd is 8.10

Per the records, this sequence ( `WSYYCAGLK` ) has pKd equal to 7.91

pKd reading for `LARWSSFKK` : 6.77

###

# TARGET_UNDER_TEST: HLA-B*58:01
# METHOD: IEDB peptide-MHC binding, purified MHC/competitive/fluorescence; filed as Kd, often an IC50 or EC50 that approximates it; bounds were set here for any values at or beyond the usual limits of such assays
# MEASUREMENT_CONDITIONS: source organism: Mycobacterium tuberculosis variant bovis BCG str. Pasteur 1173P2
MEASUREMENT_KIND: Kd (nM)
Just the number in nM, nothing appended.

Noted for `IASLTGWQW` : its Kd reads 0.6
